target: glucocorticoid receptors (GR) in SW1353/MMTV-5 cells (Homo sapiens, UniProt P04150); construct: contains endogenous glucocorticoid receptors; endogenous in cells; assay: GR functional assay using SW1353/MMTV-5 cells (MMTV-luciferase reporter)
Sequence (P04150 whole entry): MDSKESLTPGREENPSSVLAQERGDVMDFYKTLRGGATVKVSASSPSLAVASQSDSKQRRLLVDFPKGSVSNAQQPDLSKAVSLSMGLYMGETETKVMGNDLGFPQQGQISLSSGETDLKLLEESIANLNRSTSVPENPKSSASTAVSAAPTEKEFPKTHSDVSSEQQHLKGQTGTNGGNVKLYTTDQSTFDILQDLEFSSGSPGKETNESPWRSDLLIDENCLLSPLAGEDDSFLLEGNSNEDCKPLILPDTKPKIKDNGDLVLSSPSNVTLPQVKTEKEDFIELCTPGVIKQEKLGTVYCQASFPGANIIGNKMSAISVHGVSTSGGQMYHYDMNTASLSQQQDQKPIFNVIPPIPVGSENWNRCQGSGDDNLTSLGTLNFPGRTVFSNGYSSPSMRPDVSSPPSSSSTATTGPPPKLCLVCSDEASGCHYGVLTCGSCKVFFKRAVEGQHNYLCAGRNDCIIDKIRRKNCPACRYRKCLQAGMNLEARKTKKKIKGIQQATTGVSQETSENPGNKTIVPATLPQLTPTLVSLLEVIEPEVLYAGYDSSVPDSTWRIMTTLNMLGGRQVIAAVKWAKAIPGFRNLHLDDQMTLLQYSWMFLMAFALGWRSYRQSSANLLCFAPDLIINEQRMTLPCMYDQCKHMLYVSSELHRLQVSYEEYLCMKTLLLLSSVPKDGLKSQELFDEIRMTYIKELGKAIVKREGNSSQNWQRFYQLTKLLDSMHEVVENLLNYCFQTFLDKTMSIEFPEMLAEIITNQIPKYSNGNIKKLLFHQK
The following molecules are shown together with reported Ki values.

>>> observed("O=S(=O)(c1ccc(N2CCOCC2)nc1)N1CCC2=Cc3c(cnn3-c3ccc(F)cc3)C[C@]2(CN2CC[C@H](O)C2)C1")
"> 50 nM"
>>> observed("O=S(=O)(c1ccc(N2CC[C@@H](F)C2)nc1)N1CCC2=Cc3c(cnn3-c3ccc(F)cc3)C[C@]2(CN2CC[C@H](O)C2)C1")
"> 50 nM"

Now take the following molecule into account.
Can you share its Ki? I mean this molecule: O=S(=O)(c1ccc(N2CC[C@H](F)C2)nc1)N1CCC2=Cc3c(cnn3-c3ccc(F)cc3)C[C@]2(COCC2CC2)C1
< 10 nM
